# ASSAYED_TARGET: T1, GLP-1 receptor (covalently immobilized on the Biacore biosensor surface) (UniProt P43220 24-145, limits assumed)
# T1 construct: also called the receptor
# ASSAY_REMARKS: Biacore (SPR), GLP-1 receptor covalently immobilized, peptide injected
PROPERTY_NAME: Kd

>>> result("HAEGTFTSDVSSYLEGQAAKEFIAWLVKGRC (5 kDa cysteine-reactive maleimide-PEG on the added Cys at position 37, range 27-56; also called 5 kDa-PEG-GLP-1 (Cys analog); C-terminally PEGylated GLP-1) [5 kDa-PEG-Cys(37)-GLP-1]")
"1600 nM"
